Target: Voltage-gated inwardly rectifying potassium channel KCNH2 (Homo sapiens, UniProt Q12809)
Sequence (Q12809 whole entry): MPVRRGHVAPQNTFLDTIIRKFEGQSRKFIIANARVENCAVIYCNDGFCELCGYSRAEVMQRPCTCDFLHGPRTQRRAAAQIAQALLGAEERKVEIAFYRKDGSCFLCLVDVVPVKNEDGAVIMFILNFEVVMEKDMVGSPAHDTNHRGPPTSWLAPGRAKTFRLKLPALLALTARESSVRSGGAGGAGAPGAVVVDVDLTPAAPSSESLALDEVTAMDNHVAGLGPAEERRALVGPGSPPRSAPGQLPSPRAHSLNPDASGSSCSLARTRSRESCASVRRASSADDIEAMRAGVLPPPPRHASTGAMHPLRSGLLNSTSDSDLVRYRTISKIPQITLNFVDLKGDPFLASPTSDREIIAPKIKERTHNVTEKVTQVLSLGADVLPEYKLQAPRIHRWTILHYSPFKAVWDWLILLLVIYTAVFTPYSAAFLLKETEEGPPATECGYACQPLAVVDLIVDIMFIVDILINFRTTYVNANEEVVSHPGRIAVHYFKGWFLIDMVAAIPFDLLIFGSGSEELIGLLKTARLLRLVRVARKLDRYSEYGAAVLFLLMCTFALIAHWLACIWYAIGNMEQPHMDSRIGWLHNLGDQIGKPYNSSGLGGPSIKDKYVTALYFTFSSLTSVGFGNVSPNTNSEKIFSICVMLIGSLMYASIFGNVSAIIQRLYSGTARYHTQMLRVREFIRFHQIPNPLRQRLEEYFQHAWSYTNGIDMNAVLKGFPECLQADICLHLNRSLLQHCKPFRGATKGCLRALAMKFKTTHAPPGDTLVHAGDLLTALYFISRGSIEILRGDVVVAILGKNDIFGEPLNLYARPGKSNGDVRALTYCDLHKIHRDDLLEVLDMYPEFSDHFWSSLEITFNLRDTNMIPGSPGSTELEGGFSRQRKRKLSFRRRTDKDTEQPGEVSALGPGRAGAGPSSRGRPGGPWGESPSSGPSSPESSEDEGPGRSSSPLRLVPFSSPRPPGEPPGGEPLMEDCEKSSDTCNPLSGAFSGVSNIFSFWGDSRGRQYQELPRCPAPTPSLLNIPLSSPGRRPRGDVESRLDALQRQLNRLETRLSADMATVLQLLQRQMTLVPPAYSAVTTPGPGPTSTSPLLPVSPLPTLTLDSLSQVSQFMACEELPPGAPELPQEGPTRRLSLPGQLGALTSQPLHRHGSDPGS
Assay: Inhibition of wild type human ERG expressed in CHOK1 cells by whole-cell plate-based electrophysiology
Kindly state pIC50 for each of the entries shown.
Answers are plain numbers, as −log10 of the molar value.

For orientation, consider the following solved cases.
smiles_entry=CC1(C)CCc2cc(CN3CCC4(CC3)CCN(C(=O)c3ccncn3)CC4)ccc2O1 system_under_test="Voltage-gated inwardly rectifying potassium channel KCNH2 (Homo sapiens, UniProt Q12809)" value_measured=4.95
smiles_entry=O=C(c1ccncc1)N1CCC2(CCN(Cc3ccccc3OC(F)(F)C(F)F)CC2)CC1 system_under_test="Voltage-gated inwardly rectifying potassium channel KCNH2 (Homo sapiens, UniProt Q12809)" value_measured=5.29

Lab note: each compound below needs its pIC50 filled in.
1. CC1(C)Cc2c(CN3CCC4(CC3)CCN(C(=O)c3ccncc3)CC4)cccc2O1
2. CC1(C)CCc2cc(CN3CCC4(CC3)CCN(C(=O)c3ccc(N)cn3)CC4)ccc2O1
3. COc1ccccc1Oc1cccc(CN2CCC3(CC2)CCN(C(=O)c2ccncn2)CC3)c1

Result string:
[5.15, 4.71, 5.72]
